biological target: Hexokinase-4 (Homo sapiens) + Glucokinase regulatory protein (Homo sapiens) (UniProt P35557+Q14397); test: qHTS assay for inhibitors of recombinant human GCK-GKRP interaction: ADP-Glo assay (AID 743206); settings: ADP-Glo luminescence, 60 min, 0% = vehicle-only wells with enzyme present; series mostly up to 76.9 µM
Sequence (P35557 whole entry, looked up): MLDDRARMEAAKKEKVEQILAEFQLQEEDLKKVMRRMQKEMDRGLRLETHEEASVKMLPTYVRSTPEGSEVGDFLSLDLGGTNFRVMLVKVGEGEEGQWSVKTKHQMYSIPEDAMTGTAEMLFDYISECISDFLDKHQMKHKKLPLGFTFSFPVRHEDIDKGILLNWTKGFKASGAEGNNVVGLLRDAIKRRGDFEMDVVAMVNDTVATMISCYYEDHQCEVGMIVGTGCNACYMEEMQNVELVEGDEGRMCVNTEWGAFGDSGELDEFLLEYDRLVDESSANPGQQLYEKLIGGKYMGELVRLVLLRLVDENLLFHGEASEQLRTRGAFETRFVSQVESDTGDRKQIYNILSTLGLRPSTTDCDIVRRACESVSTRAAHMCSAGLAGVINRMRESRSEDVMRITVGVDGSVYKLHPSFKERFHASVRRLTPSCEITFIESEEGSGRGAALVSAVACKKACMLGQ
Sequence (Q14397 whole entry, looked up): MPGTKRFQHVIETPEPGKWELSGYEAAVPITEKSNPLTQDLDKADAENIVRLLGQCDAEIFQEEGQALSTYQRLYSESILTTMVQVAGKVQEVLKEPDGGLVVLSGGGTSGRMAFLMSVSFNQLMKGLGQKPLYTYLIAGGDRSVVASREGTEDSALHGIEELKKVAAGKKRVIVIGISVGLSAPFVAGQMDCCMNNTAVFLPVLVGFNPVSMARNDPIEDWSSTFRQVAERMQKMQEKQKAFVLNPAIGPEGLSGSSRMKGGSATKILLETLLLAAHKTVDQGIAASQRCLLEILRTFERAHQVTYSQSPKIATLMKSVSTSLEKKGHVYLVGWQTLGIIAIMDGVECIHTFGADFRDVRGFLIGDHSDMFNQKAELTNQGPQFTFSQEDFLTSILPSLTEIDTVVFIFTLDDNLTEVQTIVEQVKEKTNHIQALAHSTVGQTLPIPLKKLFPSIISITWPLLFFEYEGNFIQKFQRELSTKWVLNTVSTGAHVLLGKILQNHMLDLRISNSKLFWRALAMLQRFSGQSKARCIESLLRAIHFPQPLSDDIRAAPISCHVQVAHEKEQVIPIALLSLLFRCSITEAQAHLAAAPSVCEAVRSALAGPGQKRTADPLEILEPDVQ
Active and inactive are the calls of the source. The call rests on the fitted dose curve; in most records, active means well fitted curve in the direction sought with a large enough effect; inconclusive means small, poorly fitted or top-dose-only effect, or another doubt; inactive means no such curve, though single readings can be large or run the other way.
MEASURE: outcome

STRUCTURE_AS_SMILES	MEASURED_RESULT
COC(=O)C1=CCCN(C)C1	inactive
NC(=O)CN1CCCC1=O	inactive
COc1ccc(C(=O)N2CCCC2=O)cc1	inactive
O=C(O)c1nn(Cc2ccc(Cl)cc2Cl)c2ccccc12	inactive

Just for reference, PubChem BioAssay (NCATS) is where these values come from.
